// endpoint pIC50 / system c-Src (Homo sapiens (Human), UniProt P12931)
One number for each entry, as −log10 of the molar value.

Previously resolved entries follow.
smiles_str=CC[Si](C)(C)c1cc(NC(=O)Nc2ccc(Oc3ccnc(Nc4ccccc4)n3)c3ccccc23)n(-c2ccc(C)cc2)n1 measured_metric=pIC50 data_value=6.94
smiles_str=Cc1cc(Nc2nccc(Oc3ccc(NC(=O)Nc4cc([Si](C)(C)C)nn4-c4ccc(OCCN5CCOCC5)cc4)c4ccccc34)n2)cc2cn[nH]c12 measured_metric=pIC50 data_value=7.82

Below: the item to evaluate.
Query :: Could you please provide reported pIC50 for Cc1ccc(-n2nc([Si](C)(C)C)cc2NC(=O)Nc2ccc(Oc3ccnc(Nc4cc(C)c5[nH]ncc5c4)n3)c3ccccc23)cc1 ? Thanks!
Result :: 6.87

----------
# System: PBMCs
# run description: IL-2 and IFN gamma release in CD3/CD28 stimulated PBMC cells
# Type: cell-based
# measurement setup: Homo sapiens, IL-2, read-out: IC50 Values for Inhibition of Cytokine Release PBMCs IL-2
# Procedure: PBMCs from healthy subjects are separated from whole blood using a density gradient (Lymphoprep, Axis-Shield Healthcare). Cells are added to a 96 well plate pre-coated with a mixture of CD3/CD38 monoclonal antibodies (0.3 μg/mL eBioscience and 3 μg/mL BD Pharmingen respectively). […] Supernatants are harvested and IL-2 and IFN gamma release determined by Sandwich ELISA (Duo-set, R&D System). The IC50 is determined from the dose response curve.
measured metric: pIC50
Numbers only, as −log10 of the molar value.

Provide each entry's pIC50 from the list below.
1. C[Si](C)(C)c1cc(NC(=O)Nc2ccc(Oc3ccnc(Nc4ccccc4)n3)c3ccccc23)n(-c2ccc(OCCN3CCOCC3)cc2)n1
2. Cc1ccc(-n2nc([Si](C)(C)C)cc2NC(=O)Nc2ccc(Oc3ccnc(Nc4ccccc4)n3)c3ccccc23)cc1
3. Cc1ccc(-n2nc([Si](C)(C)C)cc2NC(=O)Nc2ccc(Oc3ccnc(Nc4cc(C)c5[nH]ncc5c4)n3)c3ccccc23)cc1
4. Cc1ccc(-n2nc([Si](C)(C)C)cc2NC(=O)Nc2ccc(Oc3ccnc(Nc4ccc5[nH]ncc5c4)n3)c3ccccc23)cc1
5. COc1ccc(-n2nc([Si](C)(C)C)cc2NC(=O)Nc2ccc(Oc3ccnc(Nc4ccccc4)n3)c3ccccc23)cn1

Result ::
1: 7.11; 2: 6.56; 3: 7.39; 4: 7.32; 5: 6.89

----------
// endpoint IC50 / system GSK 3α (Homo sapiens (Human), UniProt P49840)

Previously resolved entries follow.
smiles_str=Cc1cc(Nc2nccc(Oc3ccc(NC(=O)Nc4cc([Si](C)(C)C)nn4-c4ccc(OCCN5CCOCC5)cc4)c4ccccc34)n2)cc2cn[nH]c12 measured_metric=IC50 data_value="3.49 µM"
smiles_str=Cc1ccc(-n2nc([Si](C)(C)C)cc2NC(=O)Nc2ccc(Oc3ccnc(Nc4ccc5c(c4)CNC5=O)n3)c3ccccc23)cc1 measured_metric=IC50 data_value="0.345 µM"
smiles_str=Cc1ccc(-n2nc([Si](C)(C)C(C)(C)C)cc2NC(=O)Nc2ccc(Oc3ccnc(Nc4ccccc4)n3)c3ccccc23)cc1 measured_metric=IC50 data_value="5.01 µM"
smiles_str=Cc1ccc(-n2nc([Si](C)(C)C)cc2NC(=O)Nc2ccc(Oc3ccnc(Nc4ccccc4)n3)c3ccccc23)cc1 measured_metric=IC50 data_value="> 10 µM"
smiles_str=COc1cc(Nc2nccc(Oc3ccc(NC(=O)Nc4cc([Si](C)(C)C)nn4-c4ccc(C)cc4)c(Cl)c3Cl)n2)cc(OCCN2CCOCC2)c1 measured_metric=IC50 data_value="> 10 µM"
smiles_str=Cc1ccc(-n2nc([Si](C)(C)C)cc2NC(=O)Nc2ccc(Oc3ccnc(Nc4cc(C)c5[nH]ncc5c4)n3)c(Cl)c2Cl)cc1 measured_metric=IC50 data_value="> 10 µM"
smiles_str=Cc1ccc(-n2nc([Si](C)(C)C)cc2NC(=O)Nc2ccc(Oc3ccnc(Nc4ccccn4)n3)c3ccccc23)cc1 measured_metric=IC50 data_value="> 10 µM"
smiles_str=CC[Si](CC)(CC)c1cc(NC(=O)Nc2ccc(Oc3ccnc(Nc4ccccc4)n3)c3ccccc23)n(-c2ccc(C)cc2)n1 measured_metric=IC50 data_value="> 10 µM"

Query :: Could you please provide reported IC50 for CC[Si](C)(C)c1cc(NC(=O)Nc2ccc(Oc3ccnc(Nc4ccccc4)n3)c3ccccc23)n(-c2ccc(C)cc2)n1 ? Thanks!
Result :: > 10 µM

----------
// endpoint IC50 / system c-Src (Homo sapiens (Human), UniProt P12931)
Numbers only, in nM.

Previously resolved entries follow.
compound="Cc1ccc(-n2nc([Si](C)(C)C)cc2NC(=O)Nc2ccc(Oc3ccnc(Nc4ccc5c(c4)NC(=O)C5)n3)c3ccccc23)cc1 [Example 10]" data_value=19
compound="COc1cc(Nc2nccc(Oc3ccc(NC(=O)Nc4cc([Si](C)(C)C)nn4-c4ccc(C)cc4)c4ccccc34)n2)cc(OCCN2CCOCC2)c1 [Example 13]" data_value=170
compound="Cc1ccc(-n2nc([Si](C)(C)C)cc2NC(=O)Nc2ccc(Oc3ccnc(Nc4ccccc4)n3)c3ccccc23)cc1 [Example 1]" data_value=77
compound="C[Si](C)(C)c1cc(NC(=O)Nc2ccc(Oc3ccnc(Nc4ccccc4)n3)c3ccccc23)n(-c2ccc(OCCN3CCOCC3)cc2)n1 [Example 3]" data_value=227
compound="COc1cc(Nc2nccc(Oc3ccc(NC(=O)Nc4cc([Si](C)(C)C)nn4-c4ccc(C)cc4)c(Cl)c3Cl)n2)cc(OCCN2CCOCC2)c1 [Example 18]" data_value=41

Provide each entry's IC50 from the list below.
1. COc1cc(Nc2nccc(Oc3ccc(NC(=O)Nc4cc([Si](C)(C)C)nn4-c4ccc(C)cc4)c4ccccc34)n2)cc(C(=O)NCCN2CCOCC2)c1 [Example 12]
2. COCCOCCOCCOc1cc(Nc2nccc(Oc3ccc(NC(=O)Nc4cc([Si](C)(C)C)nn4-c4ccc(C)cc4)c4ccccc34)n2)cc(OC)c1 [Example 21]
3. Cc1ccc(-n2nc([Si](C)(C)C)cc2NC(=O)Nc2ccc(Oc3ccnc(Nc4ccccn4)n3)c3ccccc23)cc1 [Example 14]

Result ::
[10, 17, 360]

Provide each entry's IC50 from the list below.
1. COc1ccc(-n2nc([Si](C)(C)C)cc2NC(=O)Nc2ccc(Oc3ccnc(Nc4ccccc4)n3)c3ccccc23)cn1 [Example 2]
2. Cc1ccc(-n2nc([Si](C)(C)C)cc2NC(=O)Nc2ccc(Oc3ccnc(Nc4cccc(OCCN5CCOCC5)c4)n3)c3ccccc23)cc1 [Example 6]
3. Cc1ccc(-n2nc([Si](C)(C)C)cc2NC(=O)Nc2ccc(Oc3ccnc(Nc4ccc5[nH]ncc5c4)n3)c3ccccc23)cc1 [Example 7]
4. Cc1ccc(-n2nc([Si](C)(C)C)cc2NC(=O)Nc2ccc(Oc3ccnc(Nc4ccc5onc(N)c5c4)n3)c3ccccc23)cc1 [Example 8]

Result ::
[93, 10, 45, 37]

----------
# target under test: p38 MAPKα isoform (MAPK14) (Homo sapiens (Human), UniProt Q16539)
# Sequence (Q16539 whole entry, canonical isoform): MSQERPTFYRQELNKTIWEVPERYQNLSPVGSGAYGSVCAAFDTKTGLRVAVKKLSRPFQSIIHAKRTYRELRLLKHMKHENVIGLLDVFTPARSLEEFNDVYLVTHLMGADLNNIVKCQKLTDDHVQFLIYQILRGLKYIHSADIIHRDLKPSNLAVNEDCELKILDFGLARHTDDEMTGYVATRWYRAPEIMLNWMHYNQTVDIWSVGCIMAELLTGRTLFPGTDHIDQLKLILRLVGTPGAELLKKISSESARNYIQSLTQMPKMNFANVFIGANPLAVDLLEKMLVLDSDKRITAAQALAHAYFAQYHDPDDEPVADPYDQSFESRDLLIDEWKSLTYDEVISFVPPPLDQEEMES
# run description: p38 MAPKα enzyme inhibition (Z-LYTE FRET)
I'd be grateful if you could share measured IC50 for these entries.

Previously resolved entries follow.
smiles_str=COc1cc(Nc2nccc(Oc3ccc(NC(=O)Nc4cc([Si](C)(C)C)nn4-c4ccc(C)cc4)c(Cl)c3Cl)n2)cc(OCCN2CCOCC2)c1 data_value="> 1 µM"
smiles_str=Cc1ccc(-n2nc([Si](C)(C)C)cc2NC(=O)Nc2ccc(Oc3ccnc(Nc4ccc5onc(N)c5c4)n3)c3ccccc23)cc1 data_value="> 1 µM"

Below: the item to evaluate.
Query :: Could you please provide reported IC50 for COc1cc(Nc2nccc(Oc3ccc(NC(=O)Nc4cc([Si](C)(C)C)nn4-c4ccc(C)cc4)c4ccccc34)n2)cc(OCCN2CCOCC2)c1 ? Thanks!
Result :: > 1 µM

----------
// endpoint pIC50 / system GSK 3α (Homo sapiens (Human))
pIC50: −log10 of the molar value.

smiles_str=Cc1ccc(-n2nc([Si](C)(C)C)cc2NC(=O)Nc2ccc(Oc3ccnc(Nc4ccc5[nH]ncc5c4)n3)c3ccccc23)cc1 measured_metric=pIC50 data_value="< 5.00"
smiles_str=Cc1ccc(-n2nc([Si](C)(C)C)cc2NC(=O)Nc2ccc(Oc3ccnc(Nc4cc(C)c5[nH]ncc5c4)n3)c3ccccc23)cc1 measured_metric=pIC50 data_value="< 5.00"
smiles_str=Cc1ccc(-n2nc([Si](C)(C)C)cc2NC(=O)Nc2ccc(Oc3ccnc(Nc4cccc(OCCN5CCOCC5)c4)n3)c3ccccc23)cc1 measured_metric=pIC50 data_value="< 5.70"

Below: the item to evaluate.
Query :: Could you please provide reported pIC50 for Cc1ccc(-n2nc([Si](C)(C)C)cc2NC(=O)Nc2ccc(Oc3ccnc(Nc4ccc5c(c4)NC(=O)C5)n3)c3ccccc23)cc1 ? Thanks!
Result :: < 5.00
